System: Hepatitis C virus isolate HC-J4
Experiment: Inhibition of Hepatitis C virus genotype 1b HC-J4 recombinant N-terminal histidine tagged truncated NS5B polymerase lacking C-terminal 21 amino acids assessed as standard-primer dependent elongation reaction using poly rA/U12 as template at 25 uM after 1 hr by liquid scintillation counting analysis
Some compounds, each annotated with its measured inhibition.

The following compounds have reported results that may help.
Data request: Please look up its inhibition: Cc1ccccc1COC(=O)c1cn(Cc2ccc(C(F)(F)F)cc2F)c2cc(Cl)c(N)cc2c1=O
Data returned: > 50%

Data request: Please look up its inhibition: Nc1cc2c(=O)c(C(=O)OCc3ccc(Cl)cc3)cn(Cc3ccc(Cl)cc3)c2cc1N1CCN(c2ccccn2)CC1
Data returned: > 50%

Data request: Please look up its inhibition: Cc1ccc(COC(=O)c2cn(Cc3ccc(C(F)(F)F)cc3F)c3cc(Cl)c(N)cc3c2=O)cc1
Data returned: > 50%

Data request: Please look up its inhibition: CN1CCN(c2cc3c(cc2N)c(=O)c(C(=O)OCc2ccc(Cl)cc2)cn3Cc2ccc(Cl)cc2)CC1
Data returned: > 50%

Data request: Please look up its inhibition: Nc1cc2c(=O)c(C(=O)OCc3ccc(Cl)cc3)cn(Cc3ccc(Cl)cc3)c2cc1N1CCN(c2cccc(C(F)(F)F)c2)CC1
Data returned: > 50%

***
Data request: Please look up its inhibition: Nc1cc2c(=O)c(C(=O)OCc3ccc(Cl)cc3)cn(Cc3ccc(Cl)cc3)c2cc1N1CCNCC1
Data returned: > 50%

Data request: Please look up its inhibition: Nc1cc2c(=O)c(C(=O)OCc3ccc(Cl)cc3)cn(Cc3ccc(Cl)cc3)c2cc1N1CCN(c2nc3ccccc3s2)CC1
Data returned: > 50%

----------
Some compounds, each annotated with its measured EC90.
Tested on: Hepatitis C virus
Assay: Antiviral activity against Hepatitis C virus genotype 1b I389luc-ubi-neo/NS3-3'/5.1 replicon in Huh 5-2 cells assessed as inhibition of replicon replication after 72 hrs by replicon system assay
Format: functional, organism-based, Hepacivirus hominis
Conditions: Huh-5-2, 72 h
Value expressed in µM; do not type the unit.

Data request: Please look up its EC90: Nc1cc2c(=O)c(C(=O)OCc3ccc(Cl)cc3)cn(Cc3ccc(Cl)cc3)c2cc1N1CCN(c2cccc(C(F)(F)F)c2)CC1
Data returned: 94.6

Data request: Please look up its EC90: Nc1cc2c(=O)c(C(=O)OCc3ccc(Cl)cc3)cn(Cc3ccc(Cl)cc3)c2cc1N1CCN(c2ccccn2)CC1
Data returned: 13.5

Now, please, on to the next compound.
Data request: Please look up its EC90: COc1cc2c(=O)c(C(=O)OCc3ccc(C)cc3)cn(Cc3ccc(C(F)(F)F)cc3F)c2cc1OC
Data returned: 4.7

----------
Tested on: Hepatitis C virus
Experiment: Antiviral activity against Hepatitis C virus genotype 1b I389luc-ubi-neo/NS3-3'/5.1 replicon in Huh 5-2 cells assessed as inhibition of replicon replication after 72 hrs by replicon system assay
Format: functional, organism-based, Hepacivirus hominis
Settings: Huh-5-2, 72 h
Endpoint label: pEC50
Quick note: pEC50 means taking -log10 of the concentration in moles per liter.

Data request: Please look up its pEC50: COc1cc2c(=O)c(C(=O)OCc3ccc(C)cc3)cn(Cc3ccc(C(F)(F)F)cc3F)c2cc1OC
Data returned: 5.69

Data request: Please look up its pEC50: Cc1ccc(COC(=O)c2cn(Cc3ccc(C(F)(F)F)cc3F)c3cc(Cl)c(N)cc3c2=O)cc1
Data returned: 4.14

Data request: Please look up its pEC50: CN1CCN(c2cc3c(cc2N)c(=O)c(C(=O)OCc2ccc(Cl)cc2)cn3Cc2ccc(Cl)cc2)CC1
Data returned: 5.57

***
Data request: Please look up its pEC50: Nc1cc2c(=O)c(C(=O)O)cn(Cc3ccc(Cl)cc3)c2cc1N1CCN(c2ccccn2)CC1
Data returned: 5.14

Data request: Please look up its pEC50: Cc1ccccc1COC(=O)c1cn(Cc2ccc(C(F)(F)F)cc2F)c2cc(Cl)c(N)cc2c1=O
Data returned: 5.82

Data request: Please look up its pEC50: CCOC(=O)c1cn(Cc2ccc(Cl)cc2)c2cc(N3CCN(c4ccccn4)CC3)c(N)cc2c1=O
Data returned: 4.50

Data request: Please look up its pEC50: Nc1cc2c(=O)c(C(=O)OCc3ccc(Cl)cc3)cn(Cc3ccc(Cl)cc3)c2cc1N1CCN(c2cccc(C(F)(F)F)c2)CC1
Data returned: 4.62

Data request: Please look up its pEC50: Nc1cc2c(=O)c(C(=O)OCc3ccc(Cl)cc3)cn(Cc3ccc(Cl)cc3)c2cc1N1CCN(c2nc3ccccc3s2)CC1
Data returned: 5.07

Data request: Please look up its pEC50: Nc1cc2c(=O)c(C(=O)OCc3ccc(Cl)cc3)cn(Cc3ccc(Cl)cc3)c2cc1N1CCNCC1
Data returned: 5.77

Data request: Please look up its pEC50: Nc1cc2c(=O)c(C(=O)OCc3ccc(Cl)cc3)cn(Cc3ccc(Cl)cc3)c2cc1N1CCN(c2ccccn2)CC1
Data returned: 5.66
